system.name: MST4 (human) (UniProt Q9P289)
Sequence (Q9P289 whole entry, looked up): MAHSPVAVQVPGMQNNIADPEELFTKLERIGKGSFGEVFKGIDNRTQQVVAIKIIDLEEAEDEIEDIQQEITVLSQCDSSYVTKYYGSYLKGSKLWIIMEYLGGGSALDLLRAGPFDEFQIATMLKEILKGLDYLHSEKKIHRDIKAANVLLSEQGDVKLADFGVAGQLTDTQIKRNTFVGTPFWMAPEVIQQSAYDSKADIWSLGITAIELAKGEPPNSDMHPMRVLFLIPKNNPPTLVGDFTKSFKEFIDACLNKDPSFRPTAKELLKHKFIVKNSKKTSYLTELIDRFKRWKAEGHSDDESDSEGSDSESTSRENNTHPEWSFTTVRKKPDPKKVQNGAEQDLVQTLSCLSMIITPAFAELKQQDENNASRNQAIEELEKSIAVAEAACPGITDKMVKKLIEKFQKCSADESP
assay.name: radiometric filter-binding kinase assay
conditions: compound 1.0 µM
quantity: residual activity (%)

Below: 5 molecules and their reported residual activity.
CC1=C(CO)C(=O)O[C@@H]([C@@H](C)[C@H]2CC[C@H]3[C@@H]4C[C@H]5O[C@]56[C@@H](O)C=CC(=O)[C@]6(C)C4CC[C@]23C)C1 (some centres undefined)
95
NC(=O)c1cc(-c2ccnc(NC3CCCCC3)c2)nc(N2CCNCC2)c1
107
Cc1cc(SCc2sc(-c3ccc(C(F)(F)F)cc3)nc2C)ccc1OCC(=O)O
104
CN(C)C/C=C/C(=O)Nc1cccc(C(=O)Nc2ccc(Nc3nccc(-c4cccnc4)n3)cc2)c1
104
COc1cc(C(=O)N2CCOCC2)c(F)cc1Nc1ncc(C(F)(F)F)c(NC2CC2)n1
89

(I) NC(=O)c1c(NC(=O)C2CC2)sc2c1CCCC2
(II) Cc1ccc(Sc2cnc(Nc3cccc(Br)n3)s2)cc1C(=O)N1CCN(C(=O)CN)CC1
// returns I or II , whichever has the lower residual activity Could you answer with the label of the item you picked?
II
(II: 50%, I: 100%)

(A) COc1ccc(N(C(=O)Nc2c(C)cccc2C)c2cc(Nc3ccc(N4CCN(C)CC4)cc3)ncn2)c(OC)c1
(B) N#Cc1c(C2CCNCC2)cc(-c2c(O)cccc2OCC2CC2)nc1N
// returns A or B , whichever has the lower residual activity Could you answer with the label of the item you picked?
A
